Here the recorded inhibition is given for each entry.
Molecular target: Muscle, skeletal receptor tyrosine-protein kinase (Homo sapiens) (UniProt O15146);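 further: values are mean inhibition of MuSK from the GSK PKIS kinase screening panel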
Sequence (whole entry): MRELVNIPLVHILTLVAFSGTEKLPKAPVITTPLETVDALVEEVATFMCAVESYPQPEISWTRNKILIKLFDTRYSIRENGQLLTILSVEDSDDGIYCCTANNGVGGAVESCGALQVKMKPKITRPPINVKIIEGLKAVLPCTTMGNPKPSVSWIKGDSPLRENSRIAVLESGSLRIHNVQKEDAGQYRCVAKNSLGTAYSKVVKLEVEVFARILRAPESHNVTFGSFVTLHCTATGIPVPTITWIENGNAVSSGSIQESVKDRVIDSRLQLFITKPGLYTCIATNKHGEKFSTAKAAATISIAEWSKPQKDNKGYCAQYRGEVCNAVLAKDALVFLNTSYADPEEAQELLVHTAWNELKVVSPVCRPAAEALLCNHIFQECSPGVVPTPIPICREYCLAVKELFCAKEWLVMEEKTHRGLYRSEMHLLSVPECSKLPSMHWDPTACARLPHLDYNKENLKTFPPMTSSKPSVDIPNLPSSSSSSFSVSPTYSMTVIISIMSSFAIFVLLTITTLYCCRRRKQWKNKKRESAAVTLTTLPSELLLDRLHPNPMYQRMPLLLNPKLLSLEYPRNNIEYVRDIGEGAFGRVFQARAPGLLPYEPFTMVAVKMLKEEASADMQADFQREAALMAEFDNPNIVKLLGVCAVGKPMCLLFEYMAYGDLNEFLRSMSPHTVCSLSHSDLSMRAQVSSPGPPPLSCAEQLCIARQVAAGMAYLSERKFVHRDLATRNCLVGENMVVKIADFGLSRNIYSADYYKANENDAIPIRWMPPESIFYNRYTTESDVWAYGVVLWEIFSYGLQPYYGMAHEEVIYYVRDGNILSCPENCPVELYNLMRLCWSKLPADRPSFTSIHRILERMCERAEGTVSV
Conditions: at 0.1 µM
resultType: inhibition (%)

itemSmiles: COC(=O)Nc1nc2ccc(S(=O)(=O)c3ccc(NC(=O)Nc4cc(C(F)(F)F)ccc4F)cc3)cc2[nH]1
testValue: 2.5
--
itemSmiles: CCn1c(-c2nonc2N)nc2c(C#CC(C)(C)O)nc(OC[C@H](N)c3ccccc3)cc21
testValue: 0.54
--
itemSmiles: CCN(CC)S(=O)(=O)c1ccc(OC)c(Nc2ncc(-c3ccccc3)o2)c1
testValue: -2.42
--
itemSmiles: COc1cc(Nc2nccc(Nc3ccc4c(C)n[nH]c4c3)n2)cc(OC)c1OC
testValue: 21.3
--
itemSmiles: NC(=O)c1sc(-n2cnc3ccc(C(F)(F)F)cc32)cc1OCc1ccccc1Br
testValue: 4.43
